Measured Property: melting point

Sample answers from the record:
Cc1nc2c3c(nn2c(C)c1Cl)CN(C(=O)c1ccccc1CN1CCNC(C)C1)C3 (centres unmarked)	195 to 200 °C
CCOc1ccccc1C(=O)N1Cc2nn3c(C)c(Cl)c(C)nc3c2C1	164 to 167 °C
Cc1nc2c3c(nn2c(C)c1Cl)CN(C(=O)c1ccccc1CN(CCN(C)C)CC(F)(F)F)C3	168 to 174 °C

[ask] Need melting point of Cc1nc2c3c(nn2c(C)c1Cl)CN(C(=O)c1ccccc1CN1CCNCC1=O)C3 , thanks.
[reply] 176 to 183 °C

[ask] Need melting point of Cc1nc2c3c(nn2c(C)c1Cl)CN(C(=O)c1ccccc1CN1CCCC(N)C1)C3 (centres unmarked) , thanks.
[reply] 165 to 170 °C

[ask] Need melting point of Cc1nc2c3c(nn2c(C)c1Cl)CN(C(=O)c1ccccc1CN1CCC(O)C1)C3 (centres unmarked) , thanks.
[reply] 210 to 217 °C

[ask] Need melting point of Cc1nc2c3c(nn2c(C)c1Cl)CN(C(=O)c1ccccc1CN1CC(N(C)C)C1)C3 , thanks.
[reply] 159 to 162 °C

[ask] Need melting point of Cc1nc2c3c(nn2c(C)c1Cl)CN(C(=O)c1ccccc1OCCN(C)C)C3 , thanks.
[reply] 156 to 159 °C
